Test system: RAW-Dual
Assay: NF-kB SEAP reporter activity, fold change vs agonist alone; cytotoxicity flag (confluency mask): not cytotoxic; higher = enhanced NF-kB activity
Details: agonist: Pam3CSK4 (TLR2/1) 0.1 ug/mL
Whole data set: some 2,900 compounds, median “NF-kB SEAP reporter activity, fold change vs agonist alone” near 0.99, cut for the highest 2% near 2.6. The full list was thinned out, with the highest values kept by preference.
readout-type: NF-kB SEAP reporter activity
When you answer, write just the number.

query: Return value of NF-kB SEAP reporter activity for input CCOC(=O)CC(=O)O (library stock concentration (final ~1000-fold dilution): 10 mM water) , no commentary.
result: 1.03

query: Return value of NF-kB SEAP reporter activity for input O=c1cc(N2CCOCC2)oc2c(-c3ccc4c(c3)OCCO4)csc12 (library stock concentration (final ~1000-fold dilution): 10 mM) , no commentary.
result: 2.84

query: Return value of NF-kB SEAP reporter activity for input CC(=O)OC12COC1CC(O)C1(C)C(=O)C(O)C3=C(C)C(OC(=O)C(O)C(NC(=O)OC(C)(C)C)c4ccccc4)CC(O)(C(OC(=O)c4ccccc4)C21)C3(C)C.O.O.O (stereo not drawn) (library stock concentration (final ~1000-fold dilution): 10 mM) , no commentary.
result: 0.713

* * *

Tested on: RAW-Dual
Assay: NF-kB SEAP reporter activity, fold change vs agonist alone; cytotoxicity flag (confluency mask): cytotoxic (confluency <70% of control); higher = enhanced NF-kB activity
Conditions: agonist: ODN 1826 (TLR9) 0.5 ug/mL
Whole data set: some 2,900 compounds, median “NF-kB SEAP reporter activity, fold change vs agonist alone” near 0.99, cut for the highest 2% near 2.6. For the sample, the highest values were picked, then their nearest neighbours and some compounds at random.
readout-type: NF-kB SEAP reporter activity
When you answer, write just the number.

query: Fill in NF-kB SEAP reporter activity for Cc1sc2c(c1C)C(c1ccc(Cl)cc1)=NC(CC(=O)NCCCCNC(=O)COc1cccc3c1C(=O)N(C1CCC(=O)NC1=O)C3=O)c1nnc(C)n1-2 (stereo not drawn) (library stock concentration (final ~1000-fold dilution): 10 mM) tested with RAW-Dual.
result: 3.05

query: Fill in NF-kB SEAP reporter activity for CCn1c2ccccc2c2cc(CNCc3ccccc3OC)ccc21.Cl (library stock concentration (final ~1000-fold dilution): 10 mM) tested with RAW-Dual.
result: 0.394

query: Fill in NF-kB SEAP reporter activity for Cc1cc(O)c(-c2ccc(C(C)CN(C)C)cc2)c2c1[nH]c(=O)c1sccc12.Cl.Cl (stereo not drawn) (library stock concentration (final ~1000-fold dilution): 10 mM) tested with RAW-Dual.
result: 0.357

* * *

Test system: RAW-Dual
Assay: NF-kB SEAP reporter activity, fold change vs agonist alone; cytotoxicity flag (confluency mask): not cytotoxic; higher = enhanced NF-kB activity
Settings: agonist: ODN 1826 (TLR9) 0.5 ug/mL
Whole data set: some 2,900 compounds, median “NF-kB SEAP reporter activity, fold change vs agonist alone” near 0.99, cut for the highest 2% near 2.6. What follows is part of a selection rich in the highest values, with near analogues and random picks from the rest.
Output Criterion met for NF-kB SEAP reporter activity not less than 0.9; output Criterion not met otherwise.

query: Is NF-kB SEAP reporter activity at least 0.9? Consider Cl.O=C1Cc2cc(CCN3CCN(c4nsc5ccccc45)CC3)c(Cl)cc2N1 (library stock concentration (final ~1000-fold dilution): 10 mM)
result: Criterion not met

query: Is NF-kB SEAP reporter activity at least 0.9? Consider Cc1cc2c(C(=O)NCC(C)c3ccccc3)c(O)c(O)cc2c(O)c1-c1c(C)cc2c(C(=O)NCC(C)c3ccccc3)c(O)c(O)cc2c1O (stereo not given) (library stock concentration (final ~1000-fold dilution): 10 mM)
result: Criterion met

query: Is NF-kB SEAP reporter activity at least 0.9? Consider C=CC(=O)Nc1cccc(Oc2nc(Nc3ccc(N4CCN(C)CC4)cc3OC)ncc2Cl)c1 (library stock concentration (final ~1000-fold dilution): 10 mM)
result: Criterion not met

query: Is NF-kB SEAP reporter activity at least 0.9? Consider COc1cc(N2CCC(N3CCN(C)CC3)CC2)ccc1Nc1ncc(Cl)c(Nc2ccccc2P(C)(C)=O)n1 (library stock concentration (final ~1000-fold dilution): 2 mM)
result: Criterion met

query: Is NF-kB SEAP reporter activity at least 0.9? Consider Nc1ccn(CC(CO)OCP(=O)(O)O)c(=O)n1 (stereo not given) (library stock concentration (final ~1000-fold dilution): 10 mM water)
result: Criterion met
